EC50 (read off the curve) reference
Target: T1, Recombinant extracellular domain of human FOLR1 (Novoprotein, Cat#: C784) (human, UniProt P15328 25-233, limits assumed)
T1 construct: Bought reagent; also called recombinant FOLR1; immobilized FOLR1 extracellular domain
T1 sequence (P15328 25-233 limits assumed): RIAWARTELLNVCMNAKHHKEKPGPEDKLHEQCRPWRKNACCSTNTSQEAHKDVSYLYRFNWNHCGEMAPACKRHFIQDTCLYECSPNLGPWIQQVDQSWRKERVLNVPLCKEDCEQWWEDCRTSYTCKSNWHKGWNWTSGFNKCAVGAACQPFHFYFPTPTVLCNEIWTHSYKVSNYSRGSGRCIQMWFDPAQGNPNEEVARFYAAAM
Experiment: ELISA on plate-coated recombinant human FOLR1 extracellular domain; anti-human IgG-HRP; O.D. 450 nm

Examples with answers:
{"BINDER": "chimeric anti-FOLR1 mAb F4 (antibody, V domains shown, also called Chimeric mAb F4) VH: EVQLVESGGGLVKPGGSLKLSCAASGFTFSDYGMHWVRQAPEKGLEWVAFISSGSNTIYYADIVKGRFAISRDNAKNTLFLQMASLRSEDTALYYCARLAEWDVAYWGQGTLVTVSA VL: DIVLTQSPATLSVTPGDRISLSCRASQNINNNLHWYQQKSHESPRLLIKFASQSISGIPSRFSGSGSGTDFTLNINGVETEDFGMYFCQQIYSWPQLTFGAGTRLELK", "EC50 (read off the curve)": "~0.2 nM"}
{"BINDER": "chimeric anti-FOLR1 mAb F5 (antibody, V domains shown, also called Chimeric mAb F5) VH: EVQLVESGGELVKPGGSLKLSCAVSGFTFSNYGMSWVRQTPDKRLEWVATISSGGSYTYYPDSVKGRFTISRDNDKNTLYLQMSSLKSEDTAMYYCSTQGSSGYVGYWGQGTTLTVSS VL: DIQMTQSPSSLSAFLGGKVTITCKASQDITNFIGWYQHKPGKGPRLLISYTSILESGIPSRFSGSGSGRDYSFSISNLEPEDIATYYCLQYYNLWTFGGGTKLEIK", "EC50 (read off the curve)": "~0.1 nM"}

**Query** Reported EC50 (read off the curve) for chimeric anti-FOLR1 mAb F10 (antibody, V domains shown, also called Chimeric mAb F10) VH: QVQLQQSGPELVKPGASVKISCKASGYAFSSSWMNWVRQRPGKGLEWIGRIYPGDGYTHYNGMFKGKATLTADKSSSTGYMQLSSLTSEDSAVYFCTRHGDFPYWYFDVWGTGTTVTVSS VL: DIQMTQSPASLSASVGESVTITCRASENIDSYLAWYQQKQGKSPQLLVYAATNLAVGVPSRFSGSGSGTQYTLKINSLQSEDVARYYCQHHYSTPPTFGGGTKLEIK : what is it?
**Result** ~0.2 nM
